# System: SW-620 colon
# PROCEDURE_SUMMARY: NCI-60 one-dose screen, 48 h (100 = growth as untreated, 0 = no growth, -100 = all killed)
# RECORDED_CONDITIONS: 10 µM unless noted
About 83,000 compounds went through this panel and 20% of them were active in at least one assay; those are over-represented in the sample as a whole. The source made the active and inactive calls. Rule for the calls: active = growth percent below 10; inactive = the rest.
A collection of compounds and their measured growth
PROPERTY: growth

1) Cc1sc(C(NC(=O)OCCn2c([N+](=O)[O-])cnc2C)C(F)(F)Cl)nc1-c1ccc(OC(F)(F)F)cc1 (stereo not drawn)
-67.1% (active)
2) Cc1ccc(-c2nnc3ccc(N/N=C/c4ccccc4)nn23)cc1
90.6% (inactive)
3) CCCCCCn1c(O)c(N=Nc2nc(-c3cc4ccccc4oc3=O)cs2)c2ccccc21
56.2% (inactive)
4) CC1(C)CC[C@]2(C(=O)O)CC[C@]3(C)C(=CCC4[C@@]5(C)C[C@@H](O)[C@@H]6OC(c7ccccc7Br)OC[C@@]6(C)C5CC[C@]43C)C2C1 (stereo partly drawn)
19.5% (inactive)
5) CC(C)(C)OC(=O)/C=C/c1cccc2c1C(=O)NC(C)(c1cc3cc(Cl)ccc3oc1=O)N2 (stereo not drawn)
55.7% (inactive)
6) COc1cc2oc(-c3cccc(C(=O)Nc4ccc(Cl)cc4)c3)cc(=O)c2c(OCCNC(=O)[C@H](CO)NC(=O)OC(C)(C)C)c1OC
33.7% (inactive)
7) O=c1[nH]c2ccccc2cc1CSc1cccc(Nc2nccc(-c3ccc4ccccc4c3)n2)c1
105% (inactive)
8) Brc1ccc(N/N=C/c2c[nH]c3ccc(Br)cc23)nc1
-71.3% (active)
9) COc1cc(C2CC(c3cc(OC)c(OC)c(OC)c3)=NN2C(C)=O)ccc1OCc1ccc(F)cc1 (stereo not drawn)
58.5% (inactive)
10) Cc1cc(C)n(-c2ccc3nnc(-c4ccccc4)n3n2)n1
103% (inactive)
11) C#CCOc1ccc(/C=N/Nc2nc(-c3cc4cc(OC)ccc4oc3=O)cs2)cc1OC
39.7% (inactive)
12) CC(C)C(C(=O)O)n1c(O)c(/C=C2/C=c3cc4c(cc3=NC2=O)OCO4)sc1=S (stereo not drawn)
108% (inactive)
13) Cn1cc(NC(=O)c2cc(NC(=O)c3ccc(C#Cc4ccccc4)cc3)cn2C)cc1C(=O)NCCCN1CCOCC1
-44.3% (active)
